tested on: HepG2; test: MTT cytotoxicity assay, HepG2; details: Homo sapiens, HepG2, 24 h, read-out: In vitro Cytotoxicity (IC50, μM) HepG2
Hi! Could you tag entries with IC50 below 30 µM as Y, and those at or above as N? Much appreciated.

CC(=O)N1N=C(c2ccc([N+](=O)[O-])cc2)CC1c1cccs1 (stereo not drawn) [Compound 3]    N
O=C(CCl)N1N=C(c2ccc([N+](=O)[O-])cc2)CC1c1cccs1 (stereo not drawn) [Compound 7]    N
O=[N+]([O-])c1ccc(C2=Nc3ccccc3NC(c3cccs3)C2)cc1 (stereo not drawn) [Compound 5]    N
O=C(O)CCC(=O)N1N=C(c2ccc([N+](=O)[O-])cc2)CC1c1cccs1 (stereo not drawn) [Compound 9]    Y
O=[N+]([O-])c1ccc(C2=NN(CN3N=C(c4ccc([N+](=O)[O-])cc4)CC3c3cccs3)C(c3cccs3)C2)cc1 (stereo not drawn) [Compound 11]    N

Hello, I'm reviewing records and need to know if IC50 of O=C(C=Cc1cccs1)c1ccc([N+](=O)[O-])cc1 [Compound 1] is below 30 µM. Could you check?
N

Now give it for CC(=O)C1C(c2ccc([N+](=O)[O-])cc2)=NN(C=O)C1c1cccs1 (stereo not drawn) [Compound 14] too.
Y

Now give it for N#Cc1c(-c2cccs2)cc(-c2ccc([N+](=O)[O-])cc2)[nH]c1=O [Compound 6] too.
Y

Now give it for O=C(O)n1nc(-c2ccc([N+](=O)[O-])cc2)cc1-c1cccs1 [Compound 13] too.
N

Reference source: paper PMC12541710
